- Test system: K4 kissing-loop RNA reporter;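 also: bound reporter read as fluorescence of individual clusters on recovered sequencing chips by microscopy, with normalized cluster intensities fitted with a binding model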
- experimental_protocol: apparent KD of K4 kissing-loop reporter; higher = weaker reporter binding
- measurement_setup: Eterna round: R107; input ligand: FMN 200 uM
Short version: apparent KD of K4 kissing-loop reporter at least 100 nM is class 1, less is class 0.

| construct_sequence | category |
| --- | --- |
| UCCAGGAAUCAUGUCGUAGUGAUGUUAUGACGAGGACCGGUACGGCCGCCACUCGUCGUGGCCGGUUCUGAGGGCUAAUCUCUCA [theeternabot_exclusion_KL_Trp_A_34] | class 1 |
| GGUAGCAUGGCGGCCGCCACUUGCACUCGUCUUGCAUAUUGGCCUAUGAUAGUAGUGAUGUUACUAAGGACCGGGCCAUGCUACC | class 1 |
| AGAGUUAAUUAGUCUUUUUUCACAUUAAGUCAGGAUAUCGUAUUUUCGAGAAGGGACACAUGCUAGUGAUGUUAGCUAUUUCUCA [JR_Nu3_ExcFMNA_Sub020] | class 0 |
| CAGACAUGCGGUAGGUUCAAGCGCUGGGAAGGAGCGCAGAUGACUGCAGGUAGGUCGCCCAGUGAUGUUGGGCUUUCCACCUAUG [Onbeenbi] | class 1 |
| ACACUUUACGUAGGAUAUGCGACGAGUGAUGUUCGUCAGGCGGCUUUAGAUUAUACAAGCCGCCUAGCAGAAGGACGGGCAGUGU [Araar] | class 1 |
| UGUCAUUGGUCUGAUACCAGUUGAUAAACUGGAGUGAUGUUCCAAGAACGAGAAACUCGCAACCCUUGGCAGCAGACCGAUGACU [TheoBS 17 #SwitchBubble 13 #StaticStem] | class 1 |
